Let's look at some binders and their measured pKd.
- TEST_SYSTEM: T1, Mouse B7-H3 (mouse, UniProt Q8VE98 29-244, limits assumed)
- T1 construct: also called mouse B7-H3 protein
- T1 sequence (looked up): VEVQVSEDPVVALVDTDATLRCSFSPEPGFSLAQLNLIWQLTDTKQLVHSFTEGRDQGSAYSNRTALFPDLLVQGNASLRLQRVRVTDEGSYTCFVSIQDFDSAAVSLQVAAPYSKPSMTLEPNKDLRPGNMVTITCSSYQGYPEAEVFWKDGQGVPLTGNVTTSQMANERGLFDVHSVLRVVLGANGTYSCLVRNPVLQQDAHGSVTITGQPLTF
- ASSAY_OVERVIEW: surface plasmon resonance
pKd field: float, defined as -log10 of concentration (mol/L).

Recorded pKd, per entry:
{"BINDER": "15F9 mAb (antibody, V domains shown, Mouse hybridoma mAb, IgG3 with kappa chain) VH: QVQLQQPGAELVKPGASVKLSCKASGYTFTNYWMHWVKQRPGQGLEWIGMIHPNSGSTNYNEKFKSKATLTVDKSSSTAYMQLSSLTSEDSAVYYCARRGDGDYWGQGTTLTVSS VL: DIQMTRHPSSLSASMGERVSLTCRASQEISGYLSWLQQKPDGTIKRLIYAASTLDSGVPKRFSGSRSGSDYSLTISSLESEDFADYYCLQYASYPYTFGGGTKLEI", "pKd": 8.75}
{"BINDER": "1G5 mAb (antibody, V domains shown, Mouse hybridoma mAb, IgG3 with kappa chain) VH: QVQLQQPGAELVKPGASVKLSCKASGYTFTSYWMHWVKQRPGQGLEWIGMIHPNSGSTNYNEKFKSKATLTVDKSSSTAYMQLSSLTSEDSAVYYCARGGYFDYWGQGTTLTVSS VL: DIVMTQSQKFMSTSVGDRVSVTCKASQNVGTNVAWYQQKPGQSPKALIYSASYRYSGVPDRFTGSGSGTDFTLTISNVQSEDLAEYFCQQYNSYPYTFGGGTKLEIKR", "pKd": 9.09}
{"BINDER": "8B12 mAb (antibody, V domains shown, Mouse hybridoma mAb, IgG3 with kappa chain; also called 8K12; 81812) VH: QVQLQQPGAELVKPGASVKMSCKASGYTFTSYWITWVKQRPGQGLEWIGDIYPGSGSTNYNEKFKSKATLTVDTSSSTAYMQLSSLTSEDSAVYYCARGGTRFSPFAYWGQGTLVTVSA VL: DVLMTQTPLSLPVSLGDQASISCRSSQSIVHSNGNTYLEWYLQKPGQSPKLLIYKVSNRFSGVPDRFSGSGSGTDFTLKISRVEAEDLGVYYCFQGSHVPWTFGGGTKLEIKR", "pKd": 8.40}

**Query** May I ask what pKd has been recorded for 24D12 mAb (antibody, V domains shown) VH: QVQLQQPGAELVKPGASVKLSCKASGYTFTSYWMHWVKQRPGQGLEWIGMIHPNSGSTNYNEKFKSKATLTVDKSSSTAYMQLSSLTSEDSAVYYCANYYGTNVWGTGTTVTVS VL: DIVLTQSPASLAVSLGQRATISYRASKSVSTSGYSYMHWNQQKPGQPPRLLIYLVSNLESGVPARFSGSGSGTDFTLNIHPVEEEDAATYYCQHIREAYTFGRG ?
**Result** 8.75

**Query** Same again, this time with 23B2 mAb (antibody, V domains shown, Mouse hybridoma mAb, IgG1 with kappa chain; also called 231B2) VH: QVQLQQPGAELVKPGASVKLSCKASGYTFTSYWMHWVKQRPGQGLEWIGMIHPNSGSTNYNEKFKSKATLTVDKSSSTAYMQLSSLTSEDSAVYYCARESRQLDYWGQGTTLTVSS VL: QIVLTQSPAIMSASPGEKVTMTCSASSSISYMHWYQQKPGTSPKRWIYDTSKLASGVPARFSGSGSGTSYSLTISSMEAEDAATYYCHQRSSYPLTFGAGTKLELK
**Result** 7.99

**Query** Same again, this time with 12B4 mAb (antibody, V domains shown, Mouse hybridoma mAb, IgG3 with kappa chain; also called 124; 1214) VH: QVQLQQPGAELVKPGASVKLSCKASGYTFTSYWMHWVKQRPGQGLEWIGMIHPNSGSTNYNEKFKSKATLTVDKSSSTAYMQLSSLTSEDSAVYYCARYYYGSSYAMDYWGQGTSVTVS VL: QIVLTQSPAIMSASPGEKVTITCSASSSVSYMHWFQQKPGTSPKLWIYSTSNLASGVPARFSGSGSGTSYSLTISRMEAEDAATYYCQQRSSYPYTFGGGTKLEIKR
**Result** 8.77
